Molecular target: Human Pregnane X Receptor (PXR, NR1I2) (Homo sapiens)
Construct: host or cells: DPX2 cells of the kit
Sequence (O75469 1-434): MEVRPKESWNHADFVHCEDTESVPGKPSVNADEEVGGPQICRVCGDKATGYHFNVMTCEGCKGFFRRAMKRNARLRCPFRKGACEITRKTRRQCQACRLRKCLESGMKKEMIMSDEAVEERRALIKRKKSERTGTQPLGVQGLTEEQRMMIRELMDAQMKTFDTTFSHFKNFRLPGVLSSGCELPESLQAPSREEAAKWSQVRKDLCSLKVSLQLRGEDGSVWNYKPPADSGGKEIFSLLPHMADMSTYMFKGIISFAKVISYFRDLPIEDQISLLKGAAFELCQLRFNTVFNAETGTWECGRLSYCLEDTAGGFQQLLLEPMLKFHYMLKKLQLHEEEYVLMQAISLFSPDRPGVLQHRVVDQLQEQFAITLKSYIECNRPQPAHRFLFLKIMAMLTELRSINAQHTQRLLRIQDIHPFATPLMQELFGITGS
Experiment: PXR activation assay (Puracyp DPX2-96-001)
Type: cell-based
Conditions: Concentration observed is at 10 μM
In this section, each of the molecules is paired with its reported Maximum fold activation observed (Average).
Output: the number by itself.

Worked cases, answers included:
{"Molecule": "O=S(=O)(N[C@@H]1COC[C@H](n2c3ccc(Cl)cc3c3cc(Cl)ccc32)[C@H]1O)c1ccc(OC(F)(F)F)cc1 [Target T16, reference compound]", "Observed Value": 3.93}
{"Molecule": "N=[S@@](=O)(N[C@@H]1COC[C@H](N2c3ccccc3Oc3ccccc32)[C@H]1O)c1ccc(OC(F)(F)F)cc1 (relative stereo) [Target T14-2]", "Observed Value": 4.12}

Field: next molecule
Query: Which Maximum fold activation observed (Average) value is on record for CN=[S@@](=O)(N[C@@H]1COC[C@H](n2c3ccc(Cl)cc3c3cc(Cl)ccc32)[C@H]1O)c1ccc(OC(F)(F)F)cc1 (relative stereo) [Target T18-2] ?
Reply: 2.36

====

Target: Human Pregnane X Receptor (PXR, NR1I2) (Homo sapiens)
Construct: host or cells: DPX2 cells of the kit
Experiment: PXR activation assay (Puracyp DPX2-96-001)
Assay type: cell-based
Conditions: Concentration observed is at 10 μM
Listed here are compounds together with their documented Maximum fold activation observed (Average).
Output spec: single numeric token, no unit.

Known Maximum fold activation observed (Average) results, listed for orientation:
{"Compound": "N=[S@](=O)(N[C@@H]1COC[C@H](n2c3ccc(Cl)cc3c3cc(Cl)ccc32)[C@H]1O)c1ccc(OC(F)(F)F)cc1 (relative stereo)", "Observed Value": 2.43}
{"Compound": "O=S(=O)(N[C@@H]1COC[C@H](N2c3ccccc3Oc3ccccc32)[C@H]1O)c1ccc(OC(F)(F)F)cc1 [Target T13, reference compound]", "Observed Value": 11}

Let's switch to this compound now.
Query: Identify the measured Maximum fold activation observed (Average) of CN=[S@](=O)(N[C@@H]1COC[C@H](N2c3ccccc3Oc3ccccc32)[C@H]1O)c1ccc(OC(F)(F)F)cc1 (relative stereo) for Human Pregnane X Receptor (PXR, NR1I2) (Homo sapiens).
Reply: 3.89

====

Recorded Percent positive control response, one value per entry.
Molecular target: Human Pregnane X Receptor (PXR, NR1I2) (Homo sapiens, UniProt O75469)
Construct: host or cells: DPX2 cells of the kit
Sequence (O75469 1-434): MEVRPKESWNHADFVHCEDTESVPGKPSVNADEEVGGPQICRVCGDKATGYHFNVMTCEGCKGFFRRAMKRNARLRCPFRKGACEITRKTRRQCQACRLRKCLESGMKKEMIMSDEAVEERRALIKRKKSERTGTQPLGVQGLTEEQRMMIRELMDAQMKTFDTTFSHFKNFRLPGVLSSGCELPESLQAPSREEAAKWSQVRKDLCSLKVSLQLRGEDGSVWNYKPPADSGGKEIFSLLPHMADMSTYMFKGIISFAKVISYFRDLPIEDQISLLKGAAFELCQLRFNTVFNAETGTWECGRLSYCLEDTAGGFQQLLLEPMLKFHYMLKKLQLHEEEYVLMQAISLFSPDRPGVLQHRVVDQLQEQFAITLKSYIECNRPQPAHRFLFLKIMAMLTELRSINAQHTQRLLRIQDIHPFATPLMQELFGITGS
Assay: PXR activation assay (Puracyp DPX2-96-001)
Type: cell-based
Conditions: Concentration observed is at 10 μM
Just the number please, in %, no unit attached.

Query: If you can, please state the reported Percent positive control response value of N=[S@@](=O)(N[C@@H]1COC[C@H](N2c3ccccc3Oc3ccccc32)[C@H]1O)c1ccc(OC(F)(F)F)cc1 (relative stereo) .
Reply: 21.2

Query: Same question for CN=[S@](=O)(N[C@@H]1COC[C@H](N2c3ccccc3Oc3ccccc32)[C@H]1O)c1ccc(OC(F)(F)F)cc1 (relative stereo) please.
Reply: 19.6

Query: Can you check O=S(=O)(N[C@@H]1COC[C@H](N2c3ccccc3Oc3ccccc32)[C@H]1O)c1ccc(OC(F)(F)F)cc1 [T10 (DT-061), reference compound] next?
Reply: 89.8

====

Some compounds, each annotated with its measured Percent positive control response.
Target: Human Pregnane X Receptor (PXR, NR1I2) (Homo sapiens, UniProt O75469)
Construct: host or cells: DPX2 cells of the kit
Assay: PXR activation assay (Puracyp DPX2-96-001)
Assay type: cell-based
Conditions: Concentration observed is at 10 μM
Quote the value and follow it with the unit of measurement.

{"Compound": "CN=[S@@](=O)(N[C@@H]1COC[C@H](n2c3ccc(Cl)cc3c3cc(Cl)ccc32)[C@H]1O)c1ccc(OC(F)(F)F)cc1 (relative stereo) [Target T18-2]", "Observed Value": "9.23%"}

Query: Could you share which Percent positive control response value was measured for N=[S@](=O)(N[C@@H]1COC[C@H](n2c3ccc(Cl)cc3c3cc(Cl)ccc32)[C@H]1O)c1ccc(OC(F)(F)F)cc1 (relative stereo) [Target T17-1] ?
Reply: 9.75%

Query: Follow-up item: O=S(=O)(N[C@@H]1COC[C@H](N2c3ccccc3Oc3ccccc32)[C@H]1O)c1ccc(OC(F)(F)F)cc1 [Target T13, reference compound]
Reply: 57%

Query: Consider next the compound CN=[S@](=O)(N[C@@H]1COC[C@H](n2c3ccc(Cl)cc3c3cc(Cl)ccc32)[C@H]1O)c1ccc(OC(F)(F)F)cc1 (relative stereo) [Target T18-1] in the same way.
Reply: 5.37%

Query: One more compound: CN=[S@@](=O)(N[C@@H]1COC[C@H](N2c3ccccc3Oc3ccccc32)[C@H]1O)c1ccc(OC(F)(F)F)cc1 (relative stereo) [Target T15-2]
Reply: 41.8%

Query: How about N=[S@@](=O)(N[C@@H]1COC[C@H](n2c3ccc(Cl)cc3c3cc(Cl)ccc32)[C@H]1O)c1ccc(OC(F)(F)F)cc1 (relative stereo) [Target T17-2] ?
Reply: 9.88%

====

// reported Maximum fold activation observed (Average) for each item listed
Biological target: Human Pregnane X Receptor (PXR, NR1I2) (Homo sapiens, UniProt O75469)
Construct: host or cells: DPX2 cells of the kit
Test: PXR activation assay (Puracyp DPX2-96-001)
Type: cell-based
Conditions: Concentration observed is at 10 μM
Text: PXR is a nuclear hormone receptor involved in the transcriptional regulation of a number of metabolic enzymes (e.g. CYP3A4) and transporters (e.g. PGP). Its activation by xenobiotic substances leads to upregulation of those metabolic enzymes and transporters and consequent removal of those substances from systemic circulation. It is not uncommon to find that drugs activate the PXR receptor with problematic consequences. […]
Hey, just send me the number, nothing else.

Illustrative cases are given below, each with its answer.
{"Compound": "N=[S@@](=O)(N[C@@H]1CCC[C@H](N2c3ccccc3Oc3ccccc32)[C@H]1O)c1ccc(OC(F)(F)F)cc1 (relative stereo) [Target T11-2]", "Observed Value": 4.82}
{"Compound": "N=[S@](=O)(N[C@@H]1CCC[C@H](N2c3ccccc3Oc3ccccc32)[C@H]1O)c1ccc(OC(F)(F)F)cc1 (relative stereo) [Target T11-1]", "Observed Value": 4.57}
{"Compound": "CN=[S@](=O)(N[C@@H]1COC[C@H](n2c3ccc(Cl)cc3c3cc(Cl)ccc32)[C@H]1O)c1ccc(OC(F)(F)F)cc1 (relative stereo) [Target T18-1]", "Observed Value": 1.79}
{"Compound": "N=[S@](=O)(N[C@@H]1COC[C@H](N2c3ccccc3Oc3ccccc32)[C@H]1O)c1ccc(OC(F)(F)F)cc1 (relative stereo) [Target T14-1]", "Observed Value": 6.21}
{"Compound": "CN=[S@@](=O)(N[C@@H]1COC[C@H](N2c3ccccc3Oc3ccccc32)[C@H]1O)c1ccc(OC(F)(F)F)cc1 (relative stereo) [Target T15-2]", "Observed Value": 7.15}
{"Compound": "O=S(=O)(N[C@@H]1COC[C@H](N2c3ccccc3Oc3ccccc32)[C@H]1O)c1ccc(OC(F)(F)F)cc1 [T10 (DT-061), reference compound]", "Observed Value": 17.3}

Please look at the following compound next.
Query: Look at this compound and give its reported Maximum fold activation observed (Average). N=[S@@](=O)(N[C@@H]1COC[C@H](n2c3ccc(Cl)cc3c3cc(Cl)ccc32)[C@H]1O)c1ccc(OC(F)(F)F)cc1 (relative stereo) [Target T17-2]
Reply: 2.45

Where these numbers come from: patent US20230020161A1
